target: … (SEQ ID NO: 1)-HLA-A*02 complex (human); assay: SPR (BIAcore) or BLI (Octet) per Example 3, immobilised biotinylated pHLA, 25 C
QUANTITY_MEASURED: t1/2 (h)
Answers are plain numbers, in h.

Below is a list of binders. For each, state its recorded t1/2.
1. ImmTAC molecule a79b73 (TCR-anti-CD3 fusion) (TCR, part only; not given: anti-CD3 scFv, linker, constant regions, not shown: a dimerising Fc or GST) TCR alpha, part: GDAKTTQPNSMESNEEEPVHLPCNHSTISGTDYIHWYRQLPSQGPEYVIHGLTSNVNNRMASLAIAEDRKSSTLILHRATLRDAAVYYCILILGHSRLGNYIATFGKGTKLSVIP TCR beta, part: DGGITQSPKYLFRKEGQNVTLSCEQNLNHDAMYWYRQDPGQGLRLIYYSQIMGDEQKGDIAEGYSVSREKKESFPLTVTSAQKNPTAFYLCASSWWTGGAAPISFGPGTRLTVT
2. ImmTAC molecule a28b74 (TCR-anti-CD3 fusion) (TCR, part only; not given: anti-CD3 scFv, linker, constant regions, not shown: a dimerising Fc or GST) TCR alpha, part: GDAKTTQPNSMESNEEEPVHLPCNHSTISGTDYIHWYRQLPSQGPEYVIHGLTSNVNNRMASLAIAEDRKSSTLILHRATLRDAAVYYCILILGHSRAGNYIATFGKGTKLSVIP TCR beta, part: DGGITQSPKYLFRKEGQNVTLSCEQNLNHDAMYWYRQDPGQGLRLIYYSQIMGDEQKGDIAEGYSVSREKKESFPLTVTSAQKNPTAFYLCASSWWTGGASPIRFGPGTRLTVT
3. ImmTAC molecule a109b46 (TCR-anti-CD3 fusion) (TCR, part only; not given: anti-CD3 scFv, linker, constant regions, not shown: a dimerising Fc or GST) TCR alpha, part: GDAKTTQPNSMESNEEEPVHLPCNHSTISGTDYIHWYRQLPSQGPEYVIHGLTSNVNNRMASLAIAEDRKSSTLILHRATLRDAAVYYCILILGHSRLGNYQATFGKGTKLSVIP TCR beta, part: DGGITQSPKYLFRKEGQNVTLSCEQNLNHDAMYWYRQDPGQGLRLIYYSQIMGDEQKGDIAEGYSVSREKKESFPLTVTSAQKNPTAFYLCASSWWTGGSAPIRFGPGTRLTVT

## Output
4.6
3.7
7.31

Below is a list of binders. For each, state its recorded t1/2.
1. ImmTAC molecule a28b58 (TCR-anti-CD3 fusion) (TCR, part only; not given: anti-CD3 scFv, linker, constant regions, not shown: a dimerising Fc or GST) TCR alpha, part: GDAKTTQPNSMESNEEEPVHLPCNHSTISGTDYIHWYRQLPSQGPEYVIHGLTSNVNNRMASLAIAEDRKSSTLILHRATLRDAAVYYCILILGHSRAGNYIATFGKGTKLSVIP TCR beta, part: DGGITQSPKYLFRKEGQNVTLSCEQNLNHDAMYWYRQDPGQGLRLIYYSQIMGDEQKGDIAEGYSVSREKKESFPLTVTSAQKNPTAFYLCASSWWTGGSSPISFGPGTRLTVT
2. ImmTAC molecule a79b77 (TCR-anti-CD3 fusion) (TCR, part only; not given: anti-CD3 scFv, linker, constant regions, not shown: a dimerising Fc or GST) TCR alpha, part: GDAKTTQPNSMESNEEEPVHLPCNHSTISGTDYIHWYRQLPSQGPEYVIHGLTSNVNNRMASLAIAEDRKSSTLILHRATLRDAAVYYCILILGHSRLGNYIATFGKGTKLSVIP TCR beta, part: DGGITQSPKYLFRKEGQNVTLSCEQNLNHDAMYWYRQDPGQGLRLIYYSQIMGDEQKGDIAEGYSVSREKKESFPLTVTSAQKNPTAFYLCASSWWTGGAAPIRFGPGTRLTVT

## Output
1: 8.9; 2: 8.6
